Cited source for all entries: patent US20220025021A1

test target: HIV-1 Env of pseudovirus Du172.17 (HIV-1)
experiment summary: cell-based or functional assay
So I've got a bunch of binders here, and I need their neutralization IC50 values.

| binder | neutralization IC50 |
| --- | --- |
| MS-74 (antibody, V domains shown) VH: QVQLVQSGPEVRKPGTSVKVSCKAPGNTLKTYDLHWVRSVPGQGLQWMGWISHEGDKKVIVERFKAKVTIDWDRSTNTAYLQLSGLTSGDTAVYYCAKGSKHRLRDYALYDDDGALNWAVDVDYLSNLEFWGQGTAVTVSS VL: DFVLTQSPHSLSVTPGESASISCKSSHSLIHGDRNNYLAWYVQKPGRSPQLLIYLASSRASGVPDRFSGSGSDKDFTLKISRVETEDVGVYYCMQGRESPWTFGQGTKVDIKR | 1.46 µg/mL |
| MS-88 (antibody, V domains shown) VH: QVQLVQSGPEVRKPGTSVKVSCKASGYTFKTYDLHWVRSVPGQGLQWMGWISHEGDKKVIVERFKAKVTITRDRSTNTAYLQLSGLTSGDTAVYYCAKGSKHRLRDYALYDDDGALNWAVDVDYLSNLEFWGQGTAVTVSS VL: DFVLTQSPHSLSVTPGESASISCKSSHSLIHGDRNNYLAWYVQKPGRSPQLLIYLASSRASGVPDRFSGSGSDKDFTLKISRVETEDVGTYYCMQGRESPWTFGQGTKVDIKR | > 25 µg/mL |
| MS-79 (antibody, V domains shown) VH: QVQLVQSGPEVRKPGTSVKVSCKAPGNTLKTYDLHWVRSVPGQGLQWMGWISHEGDKKVIVERFKAKVTITWDRSTNTAYLQLSGLTSGDTAVYYCAKGSKHRLRDYALYDDDGALNWAVDVDYLSNLEFWGQGTAVTVSS VL: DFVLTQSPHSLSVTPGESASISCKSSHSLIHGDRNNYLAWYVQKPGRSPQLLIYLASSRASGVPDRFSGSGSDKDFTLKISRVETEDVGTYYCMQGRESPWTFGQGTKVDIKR | 7.28 µg/mL |
| MS-75 (antibody, V domains shown) VH: QVQLVQSGPEVRKPGTSVKVSCKASGNTLKTYDLHWVRSVPGQGLQWMGWISHEGDKKVIVERFKAKVTIDWDRSTNTAYLQLSGLTSGDTAVYYCAKGSKHRLRDYALYDDDGALNWAVDVDYLSNLEFWGQGTAVTVSS VL: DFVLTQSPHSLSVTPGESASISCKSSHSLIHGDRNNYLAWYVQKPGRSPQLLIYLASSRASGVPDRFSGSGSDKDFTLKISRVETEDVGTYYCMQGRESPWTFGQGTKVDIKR | 3.56 µg/mL |

As a next step, examine the binder that follows.
Short answer for MS-76 (antibody, V domains shown) VH: QVQLVQSGPEVRKPGTSVKVSCKAPGYTLKTYDLHWVRSVPGQGLQWMGWISHEGDKKVIVERFKAKVTIDWDRSTNTAYLQLSGLTSGDTAVYYCAKGSKHRLRDYALYDDDGALNWAVDVDYLSNLEFWGQGTAVTVSS VL: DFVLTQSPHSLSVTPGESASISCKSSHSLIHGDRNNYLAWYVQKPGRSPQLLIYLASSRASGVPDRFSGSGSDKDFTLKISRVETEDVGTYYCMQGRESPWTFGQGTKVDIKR : neutralization IC50 was 1.7 µg/mL
